# Assay Explanation: binders of probe aFGF10 on microarray, primary screen, stem cell growth factor project, biochemical, small-molecule microarray, fluorescence 635/667 (AID 1071);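 further: score merges 667 nm spot intensity and signal to noise from triplicate slides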
# Measurement Conditions: higher = more signal
Lab note: anything with composite z-score at or over 0.5 counts as 1.0; the rest go in 0.0.

composite z-score >= 0.5 for CC(C)C[C@@H]1NC(=O)[C@H](CC(C)C)NC(=O)[C@@]23C(=O)N[C@@H](Cc4ccccc4)C2[C@H](C)[C@@]2(C)O[C@H]2C3/C=C/CC/C=C/CNC1=O (stereo partly specified) ?
0.0

Entry `CCCNC(=O)[C@@H]1c2ccccc2C(=O)N(C2CCCCC2)[C@H]1c1ccc(CO)cc1` please
1.0

Entry `COCC(=C=CC[C@H](O)c1ccc(OCCO)cc1)C[C@H](O)c1ccccn1` please
0.0

Entry C=CCC(OC(C)=O)[C@@H]1[C@@H](N(Cc2ccc(-c3cccc(C(F)(F)F)c3)o2)C(=O)Cc2ccc(F)cc2)c2cc(OCCCO)ccc2N1C(=O)c1ccc(-c2ccccc2)cc1 (stereo partly specified) please
0.0

* * *

# Assay Explanation: HepG2 liver cancer cell viability effects, profiling panel, resazurin fluorescence, 24 h, PK04 Diversity Set (AID 1172); further: test concentration not given here
# Measurement Conditions: higher = more signal
Value Kind: z-score
Provide a numeric answer; units are not to be included.

For the molecule `COc1ccc([Si](C)(C)[C@@H]2[C@@H](CCO)O[C@]3(C(=O)N(Cc4ccc(NC(=O)[C@H](C)O)cc4)c4ccccc43)[C@H]2C)cc1` , what z-score is on record?
-1.84

Entry C=CCC(OC(C)=O)[C@@H]1[C@@H](N(Cc2cccc3ccccc23)C(=O)Cc2ccc(F)cc2)c2cc(OCCCO)ccc2N1C(=O)Cc1ccc2ccccc2c1 (some centres undefined) please
0.549

Entry `O=C(NCC(F)(F)F)[C@@H]1c2ccccc2C(=O)N(Cc2ccccc2Cl)[C@H]1c1ccc(CO)cc1` please
0.519

Entry `Cc1ccc(S(=O)(=O)c2cc3oc2CC[C@@H](CO)NC(=O)N(C)Cc2cn(nn2)C[C@H](Cc2ccccc2)NC3=O)cc1` please
1.02

Entry `C[N+](C)(C)CCCCNC(=O)[C@H]1C[C@H]2C(=O)NCC(=O)N2[C@H]1c1cccc(OCCO)c1` please
0.052

Entry `COc1cc2c(cc1OC)CN(C(=O)[C@H]1[C@@H]3C(=O)O[C@@H](c4ccccc4)[C@@H](c4ccccc4)N3[C@@H](c3ccccc3OCCO)[C@]13C(=O)Nc1ccc(C#CC4(O)CCCCCC4)cc13)CC2` please
0.714

Entry CC(C)N1CC=CC23O[C@@H]4/C=C\CCCOC(=O)C4[C@H]2C(=O)N(CCCCCO)[C@@H]3C1=O (some centres undefined) please
0.46

Entry `C=CC[C@@]12N=C(c3ccc(OCCCO)cc3)O[C@@H]1c1ccccc1CN(Cc1ccccc1)C2=O` please
-0.806

Entry C=CCN(C(=O)C1N(c2ccc(CCO)cc2)C(=O)C2C(C(=O)O)C3C=CC21O3)C(C)(C)C (centres undefined) please
0.43

Entry `CCN1C(C)=C(C(=O)OC)[C@@H](c2ccccc2)N2C(=O)[C@](O)(C(=O)OC)[C@@H](c3ccccc3)C(C(C)=O)=C12` please
-0.267

Entry `CC(=O)NCCCC[C@@H]1NC(=O)[C@H]2C[C@@H](C(=O)NCCCCCCN(C)C)[C@@H](c3ccc(O)cc3)N2C1=O` please
-0.666

Entry O=C1OCC=C[C@H]2OC34C=CCN(Cc5ccccc5)C(=O)[C@H]3N(CCO)C(=O)[C@@H]4[C@@H]12 (some centres undefined) please
1.21

Entry `CCOC(=O)C1=CC[C@@H](c2ccc(-c3ccc(OCc4ccccc4)cc3)c(OC)c2)N(S(=O)(=O)c2ccc(C)cc2)[C@H]1c1ccccc1` please
0.899

Entry `CC(C)CN1C(=O)[C@@]2(Cc3ccccc31)c1ccccc1C(=O)N(C1CCCCC1)[C@H]2c1ccc(CO)cc1` please
0.0515

* * *

# Assay Explanation: fission yeast growth modulation, primary screen, strain 972, OD600, 24 h, no modulator (AID 1090);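 further: basal condition with compound alone and no growth modifier present; test concentration not given here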
# Measurement Conditions: S. pombe 972 growth, called active from +8 up or from −8 down
Calls of active or inactive are those of the source.
A correct response names exactly one class from active, inactive

Look up the recorded call for `COC(=O)[C@@]1(Cc2ccc(OC)cc2)[C@H]2c3cc(C(=O)N(C)C)n(CCc4ccc(OC)c(Br)c4)c3C[C@H]2CN1C(=O)c1ccccc1` in this test.
inactive

Entry `C#CCCCON=C1C[C@@H](O)[C@@H](O)[C@@H]2[C@@H]3C(=O)N(Cc4ccc5c(c4)OCO5)C(=O)[C@@H]3CC[C@H]12` please
inactive

Entry C[C@H]1C2[C@H](Cc3ccccc3)NC(=O)[C@]23C(=O)N[C@H](Cc2ccccc2)C(=O)N[C@@H](Cc2ccccc2)C(=O)NC/C=C\C/C=C/C3[C@@H]2O[C@]12C (some centres undefined) please
inactive

Entry `CC1=C([C@H](O)CCc2ccccc2)[C@H](CO)[C@@H]2C(=O)N(Cc3ccccc3)C(=O)[C@@H]2C1` please
inactive

Entry `CC(=O)NCCCC[C@@H]1NC(=O)[C@@H]2C[C@H](C(=O)NCCCCCNC(=O)CS)[C@H](c3ccc(O)cc3)N2C1=O` please
inactive

Entry `CO[C@H]1COC(=O)[C@@H](C)NC(=O)CC=C[C@@H](C)[C@H](OC)COC(=O)CC=C[C@@H]1C` please
inactive

Entry `COC(=O)c1c(CC[C@@H](CO)NC(=O)N[C@H](Cn2cc(-c3cncn3C)nn2)C(C)C)oc(C(C)=O)c1C(=O)OC` please
inactive

Entry CCC1=C2CN(Cc3ccccc3Br)[C@@H]([C@@H](O)Cc3ccccc3)C2C=CCC1 (some centres undefined) please
inactive

Entry CN1CCC(CCCO)=CC1C1CC1 (centres undefined) please
inactive

Entry C=CC[C@]1(C(=O)NCC(O)CO)N=C(c2ccc(OCCCO)cc2)O[C@H]1c1ccccc1 (some centres undefined) please
inactive

Entry O=C1OCC=C[C@H]2OC34C=CCN(Cc5ccccc5)C(=O)[C@H]3N(CCCCCO)C(=O)[C@@H]4[C@@H]12 (some centres undefined) please
inactive

Entry `O=C1c2ccccc2[C@@]2(Cc3ccccc3N(CC(F)(F)F)C2=O)[C@H](c2ccc(CO)cc2)N1C1CCCCC1` please
inactive

Entry `C#C[C@H](O[Si](C#Cc1ccccc1)(C(C)C)C(C)C)c1ccccc1` please
active

Entry `COCCOC(=O)N1C(=O)[C@@]2(c3cc(C#CCNC(N)=O)ccc31)[C@H](c1ccccc1OCCO)N1[C@H](c3ccccc3)[C@H](c3ccccc3)OC(=O)[C@H]1[C@@H]2C(=O)NC[C@H](O)c1ccccc1` please
inactive

Entry `CO[C@H]1O[C@H](CO)[C@@H](OC(=O)CCc2ccccc2)[C@@H]2OC(=O)[C@H](Cc3cccc(Br)c3)C/C=C/C[C@@H](Cc3cccc(Br)c3)C(=O)O[C@@H]12` please
inactive

Entry `CO[C@]12C=C(Br)[C@@H](C[C@@H]1c1ccccc1)[C@@]1(CO1)C2=O` please
inactive

Entry `Cc1ccc([C@@H]2CC=C(C(=O)O)[C@H](c3ccccc3)N2S(=O)(=O)c2ccc(C)cc2)cc1` please
inactive

Entry `O=C1O[C@H](c2ccccc2)[C@H](c2ccccc2)N2[C@H]1[C@@H](C(=O)Nc1nc3ccccc3s1)[C@]1(C(=O)Nc3ccc(C#CC4(O)CCCCCC4)cc31)[C@H]2c1ccc(O)cc1` please
inactive

Entry `O=C(NCc1ccccc1)[C@@]1(CCS(=O)(=O)c2ccccc2)COC(c2ccc(OCCCO)cc2)=N1` please
inactive

Entry `COc1cccc([C@@H]2[C@@H](C)CC[C@H]3C(=O)N(C)[C@@H](C(C)C)C(=O)N23)c1` please
inactive

Entry `COc1cc2c(cc1OC)CN(C(=O)[C@H]1[C@@H]3C(=O)O[C@@H](c4ccccc4)[C@@H](c4ccccc4)N3[C@@H](c3ccccc3OCCO)[C@]13C(=O)Nc1ccc(C#CC4(O)CCCCCC4)cc13)CC2` please
inactive

Entry `C=CCOC(=O)[C@@H]1[C@H]2C(=O)O[C@H](c3ccccc3)[C@H](c3ccccc3)N2[C@H](c2ccc(OCCOC(=O)[C@H]3C[C@H]4C(=O)N[C@@H](CCCCNC(C)=O)C(=O)N4[C@H]3c3ccc(O)cc3)cc2)[C@@]12C(=O)Nc1ccc(I)cc12` please
inactive

Entry `Cc1ccc(S[C@]2(C(=O)O)CC(=O)N(Cc3ccccc3)[C@@H]2c2ccc(CO)cc2)cc1` please
inactive

Entry `CC(C)C[C@@H]1NC(=O)[C@H]2C[C@@H](C(=O)NCCCCCC[N+](C)(C)C)[C@@H](c3ccc(O)cc3)N2C1=O` please
inactive

Entry `CC(C)[Si]1(C(C)C)OCc2cc(C3CC3)nc(-c3ccccc3)c21` please
inactive

Entry `COCCOC(=O)N1C(=O)[C@@]2(c3cc(C#CC4(O)CCCCCC4)ccc31)[C@H](C(=O)N1CCCCCCC1)[C@H]1C(=O)O[C@H](c3ccccc3)[C@H](c3ccccc3)N1[C@@H]2c1ccc(O)cc1` please
inactive

Entry `Cc1ccc(S(=O)(=O)N2[C@@H](c3ccccc3)C(C(=O)O)=CC[C@H]2c2ccccc2)cc1` please
inactive

Entry `O=C(NCc1ccccc1)[C@@]1(Cc2ccccc2)COC(c2ccc(OCCCO)cc2)=N1` please
inactive

Entry `C=CC[C@]1(C(=O)O)N=C(c2ccc(OCCCO)cc2)O[C@H]1c1ccccc1` please
inactive
